Assign growth inhibition to each entry below.
assay: NCI Yeast Anticancer Drug Screen. Data for the rad50 strain (AID 155);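 further: 0% = growth of vehicle-only cultures of the same strain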; settings: S. cerevisiae rad50 strain growth inhibition; at 50.0 µM; stronger effect = higher value
Compounds without any hit were thinned out: in the full panel of roughly 79,000, 15% have a hit.
Numbers only, in %.

For `CCCCCCCCCCCCCCCCOC(=O)/C=C/c1ccccc1` the molecule record lists growth inhibition as -8.35

growth inhibition measured on `Clc1ccc(N=Cc2ccccc2Cl)cc1` = 34.8

What the record says about `Clc1ccccc1CN1COc2c(ccc3ccccc23)C1` : growth inhibition is 35.5

Per the records, this molecule ( `C1CCC(C(CCCCC(C2CCCCC2)C2CCCCC2)C2CCCCC2)CC1` ) has growth inhibition equal to 46.5

// recorded growth inhibition for `CC(C)N(CCSC(=O)N1c2ccccc2Sc2cccnc21)C(C)C` : -2

List the reported growth inhibition of each molecule below.
1. CC(C)CSC(C)C
2. COc1ccc(OC)c(NC(=O)c2ccc(Cl)c(Cl)c2)c1
3. Cc1ccc2nc(N=C(N)N)[nH]c2c1
4. N#CC1C(=O)NC(=O)C(C#N)C1C1C(=O)NC2CCCCC21 (centres undefined)
5. COC(=O)CCN(CCC(=O)OC)C1CC1

Output line:
1: -3.6; 2: -0.5; 3: -16.5; 4: 41.2; 5: -23.4

Return reported growth inhibition values for all items listed beneath this line.
1. CCC(=O)N1NC(=O)C(CC)(CC)C1=O
2. CC(=O)OC1CCC(OC(C)=O)[C@H]2[C@@H]1[C@@H]1S[C@H]2c2ccccc21 (some centres undefined)
3. O=C1NC(c2cccc3c2OCO3)N=C2Oc3ccccc3C=C12 (centres undefined)
4. CC(O)(C(=O)c1ccccc1)c1ccccc1 (centres undefined)
5. CCN(CC)CC1CCCCN1CC(=O)N1c2ccccc2NC(=O)c2ccccc21 (centres undefined)
6. CCCC(=O)Nc1cn(COC)c(C(=O)N2C[C@@H]3C[C@]34C2=CC(=O)c2[nH]cc(C)c24)n1

Output line:
1: -1.95; 2: 1; 3: 9.95; 4: -16.4; 5: -6.85; 6: 28.2

Please supply growth inhibition for each of the following items, keeping them in order.
1. CC(=O)CCC1(C)CCCC(C)(C)CC1=O (centres undefined)
2. CC1C(=O)N2C(=O)C(C)C(C)C(=O)N2C(=O)C1C (centres undefined)
3. O=C(CC(c1ccccc1)C(Sc1ccccc1)(Sc1ccccc1)Sc1ccccc1)c1ccccc1 (centres undefined)

Output line:
1. -1.3
2. 1.8
3. 13.2

Dear colleague, could you please provide growth inhibition for the molecules listed below?
1. Cc1cc(C)c(/C=C\C(=O)c2ccccc2)c(C)c1
2. COc1ccc(-c2c3c(nc4nc(SCC(=O)c5ccc(Br)cc5)nc(N)c24)CCCC3)cc1OC

Output line:
1: 9.75; 2: 0.05

For each of the molecules below, state growth inhibition.
1. Cc1ccc(S(=O)(=O)N/N=C2/CCCOC2)cc1
2. C(=C\c1ccccc1)/Cn1nc(-c2ccccc2)nc1-c1cnccn1
3. O=C1CS/C1=C/c1ccccc1

Output line:
1. 16.1
2. -33.1
3. 11.4

###

Could you please report measured growth inhibition for the items listed next?
test: NCI Yeast Anticancer Drug Screen. Data for the mec2-1 strain (AID 157); details: S. cerevisiae mec2-1 strain, at 50.0 µM, stronger effect = higher value
The panel holds about 79,000 compounds, 15% with a hit somewhere; the sample as a whole holds those more often.
Numbers only, in %.

// known answers, use as guide
Lab note: `C[N+](C)(C)CC(=O)N/N=C/c1oc(-c2cccc([N+](=O)[O-])c2)c(-c2cccc([N+](=O)[O-])c2)c1[N+](=O)[O-]` gave growth inhibition of 11.7

Entry `C=CCNC(=S)/N=C/c1c(C(=O)OCC)[nH]n(-c2ccccc2)c1=O` , growth inhibition reported as -19.5

// sample `CC1(C)C(C(=O)/C=C2\Nc3ccccc3C2(C)C)=Nc2ccccc21` , its growth inhibition was -5.65

Reported growth inhibition of `Cc1nc2ccc(I)cc2c(=O)n1-c1ccc(N=Cc2ccc(N(C)C)cc2)cc1` : 9.1

Given item O=C1N(Cc2ccccc2)CC2CCc3c(ccc4ccccc34)N12 (centres undefined) , the value recorded as its growth inhibition is -12.9

Can you give me growth inhibition for all of these, one by one?
1. O=C(O)C(=O)c1ccc(O)cc1O
2. CC(O)(c1ccccc1)C1CC1c1ccccc1 (centres undefined)
3. N#CCCC(C(=O)O)C(=O)CN1C(=O)c2ccccc2C1=O (centres undefined)

Output line:
[2.6, -3.5, -7.95]

Fill in growth inhibition for each of the 5 compounds listed.
1. CC(=O)N1C(Nc2ccccc2)CCN1c1ccccc1 (centres undefined)
2. CCOC(=O)CCC(=O)c1ccc2cc(OC)ccc2c1
3. CC(=O)Oc1cc(N(C)C)ccc1SC(Cl)(Cl)Cl
4. OC(CNCCc1ccccc1)COc1cccc2ccccc12 (centres undefined)
5. CC1(C)N=C(/C=N/O)C(C)(C)N1O

Output line:
-31.5
25.2
-17.9
92
0.55

###

Test: NCI Yeast Anticancer Drug Screen. Data for the mec2-1 strain (AID 157)
Details: S. cerevisiae mec2-1 strain, at 50.0 µM, stronger effect = higher value
Experimental: Growth inhibition of yeast strains with defined genetic alterations is measured as a screen for potential anti-cancer activity. Selected strains with alterations in DNA damage repair or cell cycle control were exposed to compounds and growth inhibition was measured relative to vehicle treated controls. The strain used in this assay is mec2-1
About 79,000 compounds went through this panel and 15% of them were active in at least one assay; those are over-represented in the sample as a whole.
Kindly state growth inhibition for each of the entries shown.
Answers are plain numbers, in %.

Below: 5 compounds and their reported growth inhibition.
Short answer for O=C1c2ccccc2C(=O)C2C1C(c1ccccc1)N(c1ccccc1)C2c1ccccc1 (stereo unspecified) : growth inhibition was -1.55

growth inhibition reading for COc1cc2c3c(c1OC)-c1[nH]c4ccccc4c1C1CCCN(CC2)C31 (stereo unspecified) : -19.9

# compound `CCOc1ccccc1N` ; its growth inhibition = 16.2

Record CCCOC(=O)c1cc(C(=CCC[C@H]2CC[C@@]3(C)[C@@H](CC[C@@H]4[C@@H]3CC[C@]3(C)[C@@H](C(C)CCCC(C)C)CC[C@@H]43)C2)c2cc(Cl)c(O)c(C(=O)OCCC)c2)cc(Cl)c1O (stereo partly specified) , field growth inhibition: -9.05

Consider `Cc1ncc(CO)c(Nc2ccccc2)n1` . Its measured growth inhibition is 5.8

Need growth inhibition for each of these compounds.
1. COC(CCl)OC
2. CC1=C(/C=C/C(O)CC(O)(C(F)(F)F)C(F)(F)F)C(C)(C)CCC1 (stereo unspecified)

Output line:
1: -18.6; 2: 20.8

Give me growth inhibition for each of these compounds, listed below.
1. C1CSCCSCCSCCSC1
2. Cn1c(=O)c2c(nc3n(C)c(=O)c4ccccc4n23)n(C)c1=O

Output line:
1: -24.4; 2: 32.8

// each listed compound needs a value for growth inhibition
1. O=C(COc1ccccc1)Nc1cccc2ccccc12
2. COC(=O)CCCC(=O)O

Output line:
1. 24.5
2. -5.2

###

test: NCI Yeast Anticancer Drug Screen. Data for the mlh1 rad18 strain (AID 175); conditions: S. cerevisiae mlh1 rad18 strain growth inhibition; at 50.0 µM
About 79,000 compounds went through this panel and 15% of them were active in at least one assay; those are over-represented in the sample as a whole. Active and inactive are the calls of the source. No stated cut-off is given here; in the data, active means growth inhibition above about 70%; inactive means the rest.
The reply should name one outcome from Yes (active), No (inactive)

Input line: Dear colleague, could you share the recorded outcome for `O=C1C=C(O)C(=C/C=C/C=C/c2c(O)cc(O)cc2O)C(O)=C1` when you have a moment?
Output line: No

Further cases:
Input line: Given `[C-]#[N+]C([N+]#[C-])=C(C)OCC` , state the outcome it received in this test.
Output line: No

Input line: What outcome does the record of this test show for `COc1cccc(/C=C2\S/C(=N/Nc3nc(C)c(C)s3)NC2=O)c1O` ?
Output line: No

Input line: Given O=C(CCCCCC(=O)N1CC(CCl)c2ccc([N+](=O)[O-])cc21)N1CC(CCl)c2ccc([N+](=O)[O-])cc21 (stereo not drawn) , state the outcome it received in this test.
Output line: No

Input line: State the result this test recorded for `O=c1cc(-c2ccccc2)[nH]c2[nH]n(-c3ccccc3)c(=O)c12` .
Output line: No

###

experiment: NCI Yeast Anticancer Drug Screen. Data for the bub3 strain (AID 167); settings: S. cerevisiae bub3 mutant strain, at 50.0 µM, stronger effect = higher value
About 79,000 compounds went through this panel and 15% of them were active in at least one assay; those are over-represented in the sample as a whole.
Record form. Attribute: growth inhibition. Fill in for each entry.
Give bare numbers, in %.

growth inhibition reading for `Ic1ccc(-c2ccccc2)cc1` : 34

Lab note: measured growth inhibition of `Cc1nc(N)nc(CCC(=O)Nc2cccc(C(F)(F)F)c2)c1-c1ccc(Cl)cc1` was -3.6

growth inhibition for `COC(=O)c1cccc2ccc3cccc(C=O)c3c12` is 12.2

Measured growth inhibition of COc1ccc(C2C(C#N)=C(N)NC(=O)C2C(N)=O)cc1 (stereo unspecified) : -4.05

Lab note: measured growth inhibition of `Nc1ccc(C(=O)NCCCC(=O)O)cc1` was -3.75

Now let's try a different one.
Reported growth inhibition for `O=c1[nH]c2nc3ccccc3c(=O)n2/c1=C/c1ccc(Cl)cc1` was 14.1
